assayed-target: murine α2AAR (Mus musculus, UniProt Q01338)
Sequence (Q01338 1-465): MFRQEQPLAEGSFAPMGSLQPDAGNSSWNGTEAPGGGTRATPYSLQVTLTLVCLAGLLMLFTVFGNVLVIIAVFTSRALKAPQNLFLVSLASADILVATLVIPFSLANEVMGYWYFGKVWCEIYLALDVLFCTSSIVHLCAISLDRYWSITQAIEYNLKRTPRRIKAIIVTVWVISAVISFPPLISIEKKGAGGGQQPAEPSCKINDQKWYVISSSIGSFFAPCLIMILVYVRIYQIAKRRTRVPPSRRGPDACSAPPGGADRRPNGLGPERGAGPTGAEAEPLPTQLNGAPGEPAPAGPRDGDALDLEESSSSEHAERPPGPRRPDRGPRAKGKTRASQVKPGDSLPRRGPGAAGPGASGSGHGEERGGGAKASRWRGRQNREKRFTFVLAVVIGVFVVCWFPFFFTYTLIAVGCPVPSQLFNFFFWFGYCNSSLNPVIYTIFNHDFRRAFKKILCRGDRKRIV
parameter: Kd (nM)

| compound | parameter | experimental-result |
| --- | --- | --- |
| COC1(C2=NCCN2)COc2ccccc2O1 (stereo not shown) [[^3H]RX82,1002] | Kd | 1.8 |

Ref: paper PMC10360211
